- experimental_protocol: Cmax in female Sprague-Dawley rat at 30 mg/kg, po administered once daily via gavage for 28 days
- Type: ADME, organism-based
- condition_details: in vivo, time 28 day
observable: Cmax (ng/mL)

substance_smiles=C=CC(=O)N1CCc2c(ncnc2N2CC[C@@H](Nc3ncc(Cl)c(OC)n3)C2)C1 unit_of_measurement=ng/mL quantitative_readout=1690

----------
- experimental_protocol: Oral bioavailability in Sprague-Dawley rat at 5 mg/kg measured for 24 hrs by LC-MS/MS analysis
- Type: ADME, organism-based
- condition_details: in vivo
observable: bioavailability (%)

substance_smiles=C=CC(=O)N1CCc2c(ncnc2N2CC[C@@H](Nc3ncc(Cl)c(OC)n3)C2)C1 quantitative_readout=35.7

----------
- experimental_protocol: AUC (0 to infinity) in CD-1 mouse at 1 mg/kg, iv by LC-MS/MS analysis
- Type: ADME, organism-based
- condition_details: in vivo
observable: AUC(0-inf)

substance_smiles=CC#CC(=O)N1CCc2c(ncnc2N2CC[C@@H](Nc3ncc(Cl)c(OC)n3)C2)C1 observable=AUC(0-inf) result="93.8 ng·h/mL"

----------
- experimental_protocol: Half life in female Sprague-Dawley rat at 7.5 mg/kg, po administered once daily via gavage for 28 days
- Assay type: ADME, organism-based
- condition_details: in vivo, time 28 day
observable: half-life (h)

substance_smiles=C=CC(=O)N1CCc2c(ncnc2N2CC[C@@H](Nc3ncc(Cl)c(OC)n3)C2)C1 observable=half-life quantitative_readout=2

----------
- experimental_protocol: Ratio of drug level in tumor to plasma in Balb/c mouse xenografted with human SUM149PT cells at 30 mg/kg, po administered via gavage and measured after 2 hrs
- Format: ADME, organism-based
observable: Kp at 2 h

substance_smiles=C=CC(=O)N1CCc2c(ncnc2N2CC[C@@H](Nc3ncc(Cl)c(OC)n3)C2)C1 observable="Kp at 2 h" result=0.38

----------
- experimental_protocol: Cmax in female Sprague-Dawley rat at 30 mg/kg, po administered via gavage and measured on day 1
- Format: ADME, organism-based
- condition_details: in vivo, time 1 day
observable: Cmax (ng/mL)

substance_smiles=C=CC(=O)N1CCc2c(ncnc2N2CC[C@@H](Nc3ncc(Cl)c(OC)n3)C2)C1 observable=Cmax quantitative_readout=2200

----------
- experimental_protocol: Volume of distribution at steady state in Sprague-Dawley rat at 1 mg/kg, iv measured for 24 hrs by LC-MS/MS analysis
- Assay type: ADME, organism-based
- condition_details: in vivo, read-out: Vdss
observable: Vd (L/kg)

substance_smiles=C=CC(=O)N1CCc2c(ncnc2N2CC[C@@H](Nc3ncc(Cl)c(OC)n3)C2)C1 quantitative_readout=0.72

----------
- experimental_protocol: Half-life of the compound in human Plasma
- Assay type: ADME, cell-free
observable: half-life

substance_smiles=C=CC(=O)N1CCc2c(ncnc2N2CC[C@@H](Nc3ncc(Cl)c(OC)n3)C2)C1 observable=half-life result="> 4.82 h"

----------
- experimental_protocol: Cmax in Sprague-Dawley rat at 150 mg/kg, po measured for 24 hrs by LC-MS/MS analysis
- Assay type: ADME, organism-based
- condition_details: in vivo
observable: Cmax (ng/mL)

substance_smiles=C=CC(=O)N1CCc2c(ncnc2N2CC[C@@H](Nc3ncc(Cl)c(OC)n3)C2)C1 observable=Cmax unit_of_measurement=ng/mL quantitative_readout=3760

----------
- experimental_protocol: AUC (0 to infinity) in Sprague-Dawley rat at 50 mg/kg, po by LC-MS/MS analysis
- Assay type: ADME, organism-based
- condition_details: in vivo
observable: AUC(0-inf) (ng·h/mL)

substance_smiles=C=CC(=O)N1CCc2c(ncnc2N2CC[C@@H](Nc3ncc(Cl)c(OC)n3)C2)C1 observable=AUC(0-inf) quantitative_readout=6690

----------
- target: Cyclin-dependent kinase 13/Cyclin-K (Homo sapiens)
- Sequence (Q14004 whole entry): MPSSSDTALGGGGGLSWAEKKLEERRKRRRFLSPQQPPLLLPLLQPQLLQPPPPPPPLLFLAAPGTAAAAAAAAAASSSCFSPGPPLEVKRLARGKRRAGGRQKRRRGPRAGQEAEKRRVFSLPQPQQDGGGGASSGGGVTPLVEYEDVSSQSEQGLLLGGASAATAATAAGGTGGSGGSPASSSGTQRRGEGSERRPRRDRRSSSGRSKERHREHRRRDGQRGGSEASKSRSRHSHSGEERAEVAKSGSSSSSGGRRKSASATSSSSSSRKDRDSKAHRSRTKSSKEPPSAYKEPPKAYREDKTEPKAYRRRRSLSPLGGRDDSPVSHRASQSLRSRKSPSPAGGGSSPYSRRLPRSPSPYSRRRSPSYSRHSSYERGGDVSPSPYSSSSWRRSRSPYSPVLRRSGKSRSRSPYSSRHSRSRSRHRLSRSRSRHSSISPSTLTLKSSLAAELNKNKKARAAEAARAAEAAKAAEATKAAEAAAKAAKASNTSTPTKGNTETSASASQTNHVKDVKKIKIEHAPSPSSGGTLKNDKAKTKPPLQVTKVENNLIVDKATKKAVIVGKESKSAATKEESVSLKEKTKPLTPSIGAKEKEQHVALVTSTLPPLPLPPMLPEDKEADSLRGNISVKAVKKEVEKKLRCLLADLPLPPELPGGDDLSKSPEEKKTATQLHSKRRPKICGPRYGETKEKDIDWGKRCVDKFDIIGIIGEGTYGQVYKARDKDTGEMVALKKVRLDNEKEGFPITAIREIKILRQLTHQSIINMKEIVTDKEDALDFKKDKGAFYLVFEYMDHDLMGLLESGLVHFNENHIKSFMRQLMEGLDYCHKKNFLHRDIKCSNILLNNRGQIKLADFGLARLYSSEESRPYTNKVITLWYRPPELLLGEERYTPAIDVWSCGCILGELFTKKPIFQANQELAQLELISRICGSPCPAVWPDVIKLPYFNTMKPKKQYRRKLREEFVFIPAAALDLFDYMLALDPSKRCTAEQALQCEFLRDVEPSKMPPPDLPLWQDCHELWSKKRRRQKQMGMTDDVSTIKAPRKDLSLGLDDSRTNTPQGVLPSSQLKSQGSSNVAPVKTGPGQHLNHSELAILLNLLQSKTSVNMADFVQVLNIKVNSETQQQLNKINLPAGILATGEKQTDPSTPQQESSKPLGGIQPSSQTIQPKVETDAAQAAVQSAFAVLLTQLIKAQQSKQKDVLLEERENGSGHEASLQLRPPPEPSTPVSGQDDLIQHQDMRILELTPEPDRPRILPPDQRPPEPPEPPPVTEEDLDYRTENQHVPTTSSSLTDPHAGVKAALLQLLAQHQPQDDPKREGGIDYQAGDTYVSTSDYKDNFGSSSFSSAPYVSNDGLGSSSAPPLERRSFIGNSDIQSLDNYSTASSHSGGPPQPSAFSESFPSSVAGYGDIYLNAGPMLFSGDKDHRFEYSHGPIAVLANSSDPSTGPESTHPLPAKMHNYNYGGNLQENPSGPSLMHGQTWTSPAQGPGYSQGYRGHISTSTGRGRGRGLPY
- Sequence (O75909 whole entry, further chain): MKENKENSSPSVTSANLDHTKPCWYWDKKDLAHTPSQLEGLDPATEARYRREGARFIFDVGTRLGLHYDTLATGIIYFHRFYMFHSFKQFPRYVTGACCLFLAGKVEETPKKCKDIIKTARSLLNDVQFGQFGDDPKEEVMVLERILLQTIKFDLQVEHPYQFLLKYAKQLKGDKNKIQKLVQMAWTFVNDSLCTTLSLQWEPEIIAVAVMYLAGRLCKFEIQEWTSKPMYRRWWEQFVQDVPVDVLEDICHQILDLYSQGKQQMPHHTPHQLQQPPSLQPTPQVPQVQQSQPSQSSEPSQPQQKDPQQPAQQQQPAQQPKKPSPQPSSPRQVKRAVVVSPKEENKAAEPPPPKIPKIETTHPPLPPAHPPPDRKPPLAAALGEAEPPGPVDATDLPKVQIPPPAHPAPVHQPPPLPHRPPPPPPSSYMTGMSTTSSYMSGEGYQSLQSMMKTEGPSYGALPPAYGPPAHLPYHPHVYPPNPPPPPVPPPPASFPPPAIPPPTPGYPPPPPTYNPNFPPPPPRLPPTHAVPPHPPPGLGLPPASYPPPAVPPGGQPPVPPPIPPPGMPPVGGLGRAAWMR
- experimental_protocol: Inhibition of CDK13/Cyclin K (unknown origin) using pS7-CTD peptide and ATP as substrate incubated for 120 mins by ADP-Glo reagent based luminescence analysis
- Format: protein-complex assay
observable: IC50

substance_smiles=C=CC(=O)NC12CC(C(=O)N3CC[C@@H](Nc4ncc(Cl)c(OC)n4)C3)(C1)C2 result="2.75 µM"
substance_smiles=C=CC(=O)N1CCc2c(nc(OC)nc2N2CC[C@@H](Nc3ncc(Cl)c(OC)n3)C2)C1 result="0.0954 µM"
substance_smiles=C=CC(=O)[C@H]1CC[C@H](C(=O)N2CC[C@@H](Nc3ncc(Cl)c(OC)n3)C2)CC1 result="2.74 µM"
substance_smiles=C=CC(=O)N1CC2(CCC(C(=O)N3CC[C@@H](Nc4ncc(Cl)c(OC)n4)C3)CC2)C1 result="0.756 µM"
substance_smiles=C=CC(=O)N1CCc2c(nc(N3CCOCC3)nc2N2CC[C@@H](Nc3ncc(Cl)c(OC)n3)C2)C1 result="0.165 µM"
substance_smiles=C=CC(=O)N1CCc2c(ccnc2N2CC[C@@H](Nc3ncc(Cl)c(OC)n3)C2)C1 result="0.107 µM"
substance_smiles=C=CC(=O)Nc1ccc(C(=O)N2CC[C@@H](Nc3ncc(Cl)c(OC)n3)C2)cc1 result="0.00922 µM"
substance_smiles=C=CC(=O)N1Cc2ncnc(N3CC[C@@H](Nc4ncc(Cl)c(OC)n4)C3)c2C1 result="0.343 µM"
substance_smiles=C=CC(=O)N1CCc2c(ncnc2N2CC[C@@H](Nc3ncc(Cl)c(OC)n3)C2)C1 result="0.0794 µM"
substance_smiles=C=CC(=O)N1Cc2ccnc(N3CC[C@@H](Nc4ncc(Cl)c(OC)n4)C3)c2C1 result="0.0761 µM"
substance_smiles=C=CC(=O)N1CCC(C(=O)N2CC[C@@H](Nc3ncc(Cl)c(OC)n3)C2)CC1 result="1.76 µM"
substance_smiles=C=CC(=O)N1CCc2c(nc(C)nc2N2CC[C@@H](Nc3ncc(Cl)c(OC)n3)C2)C1 result="0.0748 µM"
substance_smiles=C=CC(=O)N1CCc2c(nc(N3CCCC3=O)nc2N2CC[C@@H](Nc3ncc(Cl)c(OC)n3)C2)C1 result="0.198 µM"
substance_smiles=CC#CC(=O)N1CCc2c(ncnc2N2CC[C@@H](Nc3ncc(Cl)c(OC)n3)C2)C1 result="0.235 µM"

----------
- experimental_protocol: Cmax in female Sprague-Dawley rat at 7.5 mg/kg, po administered once daily via gavage for 28 days
- Format: ADME, organism-based
- condition_details: in vivo, time 28 day
observable: Cmax (ng/mL)

substance_smiles=C=CC(=O)N1CCc2c(ncnc2N2CC[C@@H](Nc3ncc(Cl)c(OC)n3)C2)C1 observable=Cmax unit_of_measurement=ng/mL quantitative_readout=800

----------
- experimental_protocol: Kinetic solubility of the compound in phosphate buffer at pH 7.4 measured after 24 hrs by HPLC-UV analysis
- Type: physicochemical
- condition_details: read-out: Kinetic_solubility
observable: solubility kinetic at 24 h (µg/mL)

substance_smiles=C=CC(=O)Nc1ccc(C(=O)N2CC[C@@H](Nc3ncc(Cl)c(OC)n3)C2)cc1 quantitative_readout=48.2
substance_smiles=C=CC(=O)N1CCc2c(ncnc2N2CC[C@@H](Nc3ncc(Cl)c(OC)n3)C2)C1 quantitative_readout=59.4

----------
- experimental_protocol: AUC in Balb/c mouse xenografted with human SUM149PT cells at 60 mg/kg, po administered once daily via gavage
- Assay type: ADME, organism-based
- condition_details: in vivo
observable: AUC (ng·h/mL)

substance_smiles=C=CC(=O)N1CCc2c(ncnc2N2CC[C@@H](Nc3ncc(Cl)c(OC)n3)C2)C1 observable=AUC unit_of_measurement=ng·h/mL quantitative_readout=4620

----------
- experimental_protocol: AUC(0 to t) in female Sprague-Dawley rat at 15 mg/kg, po administered once daily via gavage for 28 days
- Format: ADME, organism-based
- condition_details: in vivo, 672 h, time 28 day
observable: AUCt (ng·h/mL)

substance_smiles=C=CC(=O)N1CCc2c(ncnc2N2CC[C@@H](Nc3ncc(Cl)c(OC)n3)C2)C1 quantitative_readout=3220

----------
- experimental_protocol: Ratio of drug level in tumor to plasma in Balb/c mouse xenografted with human MV4-11 cells at 30 mg/kg, po administered via gavage and measured after 2 hrs
- Assay type: ADME, organism-based
observable: Kp at 2 h

substance_smiles=C=CC(=O)N1CCc2c(ncnc2N2CC[C@@H](Nc3ncc(Cl)c(OC)n3)C2)C1 observable="Kp at 2 h" quantitative_readout=0.46

----------
- target: Cytochrome P450 3A4 (Homo sapiens, UniProt P08684)
- Sequence (P08684 whole entry): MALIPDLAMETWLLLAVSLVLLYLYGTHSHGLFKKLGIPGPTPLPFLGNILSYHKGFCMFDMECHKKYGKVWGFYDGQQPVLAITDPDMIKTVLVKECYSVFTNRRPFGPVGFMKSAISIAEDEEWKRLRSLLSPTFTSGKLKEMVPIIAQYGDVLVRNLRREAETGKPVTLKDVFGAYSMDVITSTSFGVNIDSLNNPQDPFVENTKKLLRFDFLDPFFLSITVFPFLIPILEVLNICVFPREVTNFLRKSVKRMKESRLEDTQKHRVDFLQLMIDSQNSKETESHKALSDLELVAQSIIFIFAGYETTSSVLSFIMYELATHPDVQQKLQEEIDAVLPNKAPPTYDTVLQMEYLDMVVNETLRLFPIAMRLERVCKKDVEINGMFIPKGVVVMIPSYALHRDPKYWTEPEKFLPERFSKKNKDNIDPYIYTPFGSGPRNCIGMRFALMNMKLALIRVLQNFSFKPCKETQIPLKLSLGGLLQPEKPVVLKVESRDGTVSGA
observable: IC50

substance_smiles=C=CC(=O)N1CCc2c(ncnc2N2CC[C@@H](Nc3ncc(Cl)c(OC)n3)C2)C1 observable=IC50 result="> 50 µM"

----------
- experimental_protocol: AUC(0 to t) in female Sprague-Dawley rat at 7.5 mg/kg, po administered once daily via gavage for 28 days
- Format: ADME, organism-based
- condition_details: in vivo, 672 h, time 28 day
observable: AUCt (ng·h/mL)

substance_smiles=C=CC(=O)N1CCc2c(ncnc2N2CC[C@@H](Nc3ncc(Cl)c(OC)n3)C2)C1 observable=AUCt quantitative_readout=1760

All figures here come from ChEMBL document CHEMBL6153137.
